Values from ChEMBL document CHEMBL5727981

# TARGET SYSTEM: Mitogen-activated protein kinase kinase kinase 5 (Homo sapiens)
# Sequence (Q99683 whole entry): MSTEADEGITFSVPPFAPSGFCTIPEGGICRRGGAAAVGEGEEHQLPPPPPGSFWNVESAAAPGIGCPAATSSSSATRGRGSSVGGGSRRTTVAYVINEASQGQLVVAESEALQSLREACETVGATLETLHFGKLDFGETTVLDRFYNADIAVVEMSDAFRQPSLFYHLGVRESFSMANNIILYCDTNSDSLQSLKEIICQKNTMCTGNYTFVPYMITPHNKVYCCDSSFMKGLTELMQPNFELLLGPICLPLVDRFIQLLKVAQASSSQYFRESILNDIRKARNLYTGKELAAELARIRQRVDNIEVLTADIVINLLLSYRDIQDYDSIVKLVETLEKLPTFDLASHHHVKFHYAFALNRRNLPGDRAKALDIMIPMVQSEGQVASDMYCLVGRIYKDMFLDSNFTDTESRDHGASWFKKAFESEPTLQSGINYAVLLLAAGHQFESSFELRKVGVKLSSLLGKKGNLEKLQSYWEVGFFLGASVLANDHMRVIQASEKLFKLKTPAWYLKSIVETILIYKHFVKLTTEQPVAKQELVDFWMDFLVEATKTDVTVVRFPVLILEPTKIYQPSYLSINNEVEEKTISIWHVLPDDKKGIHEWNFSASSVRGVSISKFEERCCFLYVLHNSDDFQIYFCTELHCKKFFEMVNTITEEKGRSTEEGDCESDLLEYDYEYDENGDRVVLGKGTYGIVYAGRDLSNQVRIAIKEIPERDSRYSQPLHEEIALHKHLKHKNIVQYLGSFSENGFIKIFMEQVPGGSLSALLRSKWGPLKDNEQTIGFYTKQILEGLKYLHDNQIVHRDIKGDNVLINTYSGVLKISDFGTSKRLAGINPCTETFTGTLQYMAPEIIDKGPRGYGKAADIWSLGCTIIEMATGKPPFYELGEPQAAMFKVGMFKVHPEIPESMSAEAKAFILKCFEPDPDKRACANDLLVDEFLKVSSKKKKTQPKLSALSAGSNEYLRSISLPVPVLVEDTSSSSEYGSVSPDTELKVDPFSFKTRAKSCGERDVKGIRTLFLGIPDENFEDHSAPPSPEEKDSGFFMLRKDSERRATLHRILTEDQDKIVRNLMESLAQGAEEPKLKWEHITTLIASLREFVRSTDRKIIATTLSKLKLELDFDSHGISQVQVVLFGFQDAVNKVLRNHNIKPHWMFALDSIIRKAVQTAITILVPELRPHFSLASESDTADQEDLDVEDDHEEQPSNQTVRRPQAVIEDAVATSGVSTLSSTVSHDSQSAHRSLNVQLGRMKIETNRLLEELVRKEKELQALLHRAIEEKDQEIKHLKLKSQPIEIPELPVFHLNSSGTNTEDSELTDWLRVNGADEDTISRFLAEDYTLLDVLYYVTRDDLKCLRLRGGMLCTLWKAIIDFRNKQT
# RUN DESCRIPTION: In Vitro Enzyme Activity: Reagents:Base Reaction Buffer: 20 mM Hepes (pH 7.5), 10 mM MgCl2, 1 mM EGTA, 0.02% Brij35, 0.02 mg/ml BSA, 0.1 mM Na3VO4, 2 mM DTT, 1% DMSOCompound Treatment:The test compound was formulated into a 10 mM stock solution in DMSO, which was diluted into 10 concentrations in 3-fold degression, and placed in a 384-well plate (Cyclic Olefin Copolymer LDV Echo®).Kinase Name: ASK1/MAP3K5 (Invitrogen, Carlsbad, Calif.)Type: Recombinant Human Full Length Protein, GST-taggedFinal concentration of the enzyme: 20 nMSubstrate: Myelin basic protein, MBP (Active Motif, Carlsbad, Calif.)Final concentration of the substrate: 20 μMExperimental Operations:1. The substrate was dissolved in a freshly prepared base reaction buffer.2. A desired coenzyme was added to the above substrate solution.3. The kinase was added to the substrate solution and mixed slowly.4. The solution of the test compound in DMSO was added to the kinase reaction solution and incubated at room temperature for 20 minutes.5. 33P-ATP (specific activity of 10 μCi/μl) was added to the reaction solution to initiate the reaction.6. Incubated at room temperature for 2 hours.7. A small portion of the reactants was placed onto a P-81 ion exchange filter paper.8. The filter paper was washed three times with 0.75% phosphate buffer to wash off the unbound phosphate, and then the filter paper was dried.9. The radioactivity remaining on the filter paper was determined.10. Kinase activity data was expressed as the ratio of the kinase activity remaining in the test sample to the kinase activity in the vehicle (DMSO).
OBSERVABLE: IC50

Ask | Entry `CC(C)n1cnnc1-c1cccc(N2CCc3cc(Cl)c(-n4cnc(C5CC5)c4)cc3C2=O)n1` has what IC50?
Reply | < 50 nM

Ask | Requested field: IC50. Item: `CCc1cn(-c2cc3c(=O)n(-c4cccc(-c5nncn5C(C)C)n4)cnc3cc2C)cn1`
Reply | < 50 nM

Ask | Any idea what IC50 was measured for `CC(C)c1cc2ncn(-c3cccc(-c4nncn4C(C)C)n3)c(=O)c2cc1-n1cnc(C2CC2)c1` ?
Reply | < 50 nM
